testedTarget: PKC epsilon (Homo sapiens, UniProt Q02156)
Construct: purchased Invitrogen P2282
Sequence (Q02156 1-737): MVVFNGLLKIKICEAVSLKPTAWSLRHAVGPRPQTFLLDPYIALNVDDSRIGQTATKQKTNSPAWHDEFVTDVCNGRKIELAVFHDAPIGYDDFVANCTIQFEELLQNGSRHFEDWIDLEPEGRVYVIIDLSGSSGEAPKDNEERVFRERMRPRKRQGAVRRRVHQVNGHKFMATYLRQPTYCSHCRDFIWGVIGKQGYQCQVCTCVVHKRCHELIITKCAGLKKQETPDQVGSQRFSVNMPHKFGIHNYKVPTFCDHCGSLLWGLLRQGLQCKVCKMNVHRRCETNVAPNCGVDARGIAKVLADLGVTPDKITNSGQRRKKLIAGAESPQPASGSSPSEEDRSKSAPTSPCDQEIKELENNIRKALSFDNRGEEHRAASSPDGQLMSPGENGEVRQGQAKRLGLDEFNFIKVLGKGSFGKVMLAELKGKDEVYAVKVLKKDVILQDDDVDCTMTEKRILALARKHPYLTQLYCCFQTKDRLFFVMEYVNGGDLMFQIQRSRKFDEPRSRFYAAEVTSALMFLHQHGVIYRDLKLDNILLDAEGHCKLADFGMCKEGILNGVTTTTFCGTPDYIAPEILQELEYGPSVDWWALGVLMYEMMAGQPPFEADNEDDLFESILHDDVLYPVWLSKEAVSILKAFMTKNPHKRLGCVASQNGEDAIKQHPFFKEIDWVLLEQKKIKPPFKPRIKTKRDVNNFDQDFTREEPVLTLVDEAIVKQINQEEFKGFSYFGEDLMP
methodSummary: Biochemical assay for PKC epsilon (fluorescence polarization, Protein Kinase C Assay Kit, Red)
condition: Table 2, compounds of Formula XIII; read-out: IC50 μM PKCε
// values below are reported IC50

Example entries begin here.
COc1ccccc1CC(=O)NCC(N)c1ccc(C(=O)Nc2ccncc2)cc1 (centres unmarked) [Compound 138] :: 5 to 50 µM
CCCC(=O)NCC(N)c1ccc(C(=O)Nc2ccncc2)cc1 (centres unmarked) [Compound 32] :: 0.5 to 5 µM
NC(CNC(=O)c1ccccn1)c1ccc(C(=O)Nc2ccncc2)cc1 (centres unmarked) [Compound 105] :: 5 to 50 µM
NC(CNC(=O)C1(c2ccccc2)CC1)c1ccc(C(=O)Nc2ccncc2)cc1 (centres unmarked) [Compound 137] :: 0.05 to 0.5 µM
COCCC(=O)NCC(N)c1ccc(C(=O)Nc2ccncc2)cc1 (centres unmarked) [Compound 58] :: 5 to 50 µM
NC(CNC(=O)c1ccc(-c2ccccc2)cc1)c1ccc(C(=O)Nc2ccncc2)cc1 (centres unmarked) [Compound 88] :: 5 to 50 µM

Input line: Record request: IC50 value, item NC(CNC(=O)CC1CCCC1)c1ccc(C(=O)Nc2ccncc2)cc1 (centres unmarked) [Compound 47]
Output line: 0.5 to 5 µM

Input line: Try the compound NC(CNC(=O)C1(c2ccc(F)cc2Cl)CC1)c1ccc(C(=O)Nc2ccncc2)cc1 (centres unmarked) [Compound 387]
Output line: < 0.05 µM
